assay: Chemical pharmacokinetic (PK) analysis, blood/plasma concentration by LC-MS/MS; type: in vivo; conditions: blood, oral; PK analysis, FIG. 2A; read-out: bioavailability (B.A.)
QUANTITY_KIND: bioavailability (%)

>>> value_observed("CC1(C)Oc2cc3oc(=O)ccc3cc2C[C@@H]1OC/C=C/c1ccccc1")
66
